system: X. citri subsp. citri strain 306 (IBSBF 1594); assay: MIC by Resazurin Microtiter Assay (REMA); type: cell-based, Xanthomonas citri subsp. citri; conditions: Xanthomonas citri, 12 h, REMA, NYG medium, 29 °C, read-out: MIC in μM
Recorded MIC by entry
Reply with just the number (in µM).

# annotated cases, reported MIC shown
- compound: "CCCCCCCOC(=O)c1ccc(O)cc1O"
  reading-unit: "µM"
  quantitative-readout: 52
- compound: "O=C(OC1CCCCC1)c1ccc(O)cc1O"
  reading-unit: "µM"
  quantitative-readout: 171
- compound: "O=C(OC1CCCCC1)c1cc(O)ccc1O"
  reading-unit: "µM"
  quantitative-readout: 382

Record CCCCCCOC(=O)c1ccc(O)cc1O . Reported MIC: 84

###

test system: VERO (monkey kidney epithelial cell line); assay: Cytotoxicity MTT assay, VERO; type: cell-based; settings: Primates, Vero, 24 h, read-out: IC50 VERO, MTT, 24 h treatment
endpoint-name: IC50

The reported value for CCCCCCCOC(=O)c1ccc(O)cc1O in terms of IC50 is > 100 µM

###

experiment: Partition coefficient log Po/w by HPLC (OECD 117); type: physicochemical; conditions: HPLC method, OECD 117, methanol:water 3:1
endpoint-name: chromatographic logP
// return just the number, without any unit appended

Below, each entry is followed by its recorded chromatographic logP result.
- compound: "CCCCCCCCCCOC(=O)c1cc(O)ccc1O"
  chromatographic logP: 6.3
- compound: "CCCCOC(=O)c1ccc(O)cc1O"
  chromatographic logP: 3.9
- compound: "CCCCCCCCOC(=O)c1ccc(O)c(O)c1"
  chromatographic logP: 4.9
- compound: "CC(C)OC(=O)c1ccc(O)cc1O"
  chromatographic logP: 2.6
- compound: "CCOC(=O)c1cc(O)ccc1O"
  chromatographic logP: 2.4
- compound: "CCCCCCCCCCCCOC(=O)c1cc(O)ccc1O"
  chromatographic logP: 6.8

// below: chromatographic logP requested for another compound
# chromatographic logP of CCCCCCCCOC(=O)c1ccc(O)cc1O = 6.1

###

experiment: Partition coefficient log Po/w by HPLC (OECD 117); format: physicochemical; conditions: HPLC method, OECD 117, methanol:water 3:1
Class criterion met: chromatographic logP at least 3. Class criterion not met: chromatographic logP below 3.

Some solved entries appear below for comparison.
- molecule: "CCCCCCOC(=O)c1cc(O)ccc1O"
  answer-label: "criterion met"
- molecule: "CCCCCCCCCOC(=O)c1ccc(O)c(O)c1"
  answer-label: "criterion met"
- molecule: "O=C(O)c1cc(O)ccc1O [2,5 DHB acid, 2,5 dihydroxybenzoic acid, reference compound]"
  answer-label: "criterion not met"
- molecule: "CCCCCCCOC(=O)c1ccc(O)c(O)c1"
  answer-label: "criterion met"
- molecule: "CC(C)OC(=O)c1ccc(O)c(O)c1"
  answer-label: "criterion not met"

Quick check: does O=C(OC1CCCCC1)c1ccc(O)cc1O have chromatographic logP greater than or equal to 3?
criterion met

Hi team, for O=C(OC1CCCCC1)c1ccc(O)c(O)c1 , is the recorded chromatographic logP at or above 3?
criterion not met

Hi, just wondering whether O=C(OC1CCCC1)c1ccc(O)c(O)c1 shows chromatographic logP of 3 or higher.
criterion not met

Can CCOC(=O)c1ccc(O)cc1O be said to have chromatographic logP at or above 3?
criterion not met

Could you please find out whether CCCCCCCOC(=O)c1ccc(O)cc1O has chromatographic logP that meets 3 or exceeds it?
criterion met
